Below, each of the compounds is paired with its reported melting point value.

>  <compound>
O=C1CCCc2[nH]c(=O)c(C(=O)O)cc21

>  <result>
289 to 291 °C

$$$$

Ask: Fill blank: measured melting point of the compound `NNC(=O)Cc1nc2ccccc2[nH]1` is ____.
Result: 177 to 181 °C

Ask: Fill blank: measured melting point of the compound Cc1ccc(C2(C)NC(=O)NC2=O)c(C)c1 (stereo unspecified) is ____.
Result: 144 to 146 °C

Ask: Fill blank: measured melting point of the compound `NC(=O)COc1ccccc1C(=O)O` is ____.
Result: 199 to 201 °C

# credit: a melting point compilation (Tetko et al.)
